# Test system: E. coli MP-4
# test: MIC determination by CLSI broth dilution, E. coli MP-4
# Assay type: cell-based
# condition info: Escherichia coli, MP4, CLSI broth dilution; strain MP-4

- compound: "CO[C@]1(C)C[C@@H](C)CN(C)[C@@H](CCCN(C)C(C)(C)C)COC(=O)C(C)(C)C(=O)[C@H](C)[C@H]1O[C@@H]1O[C@H](C)C[C@H](N(C)C)[C@H]1O"
  MIC: "< 4 µg/mL"
- compound: "CO[C@]1(C)C[C@@H](C)CN(C)[C@H](CC2CCN(C(C)C)CC2)COC(=O)C(C)(C)C(=O)[C@H](C)[C@H]1O[C@@H]1O[C@H](C)C[C@H](N(C)C)[C@H]1O"
  MIC: "< 4 µg/mL"
- compound: "CO[C@]1(C)C[C@@H](C)CN(C)[C@H](CC2CCNCC2)COC(=O)C(C)(C)C(=O)[C@H](C)[C@H]1O[C@@H]1O[C@H](C)C[C@H](N(C)C)[C@H]1O"
  MIC: "4 to 32 µg/mL"
- compound: "CO[C@]1(C)C[C@@H](C)CN[C@@H](C)COC(=O)[C@H](C)C(=O)[C@H](C)[C@H]1O[C@@H]1OC(C)CC(N(C)C)C1O (some centres unmarked)"
  MIC: "4 to 32 µg/mL"
- compound: "CO[C@]1(C)C[C@@H](C)CN[C@H](CNC2COC2)COC(=O)[C@H](C)C(=O)[C@H](C)[C@H]1O[C@@H]1O[C@H](C)C[C@H](N(C)C)[C@H]1O"
  MIC: "4 to 32 µg/mL"

----------
# System: E. coli MP-4
# test: MIC determination by CLSI broth dilution, E. coli MP-4
# Format: cell-based
# condition info: Escherichia coli, MP4, CLSI broth dilution; strain MP-4

- molecule: "CO[C@]1(C)C[C@@H](C)CN(C)[C@H](CC2CCN(CC[C@@H](C)CCC=C(C)C)CC2)[C@@H](C)OC(=O)C(C)(C)C(=O)[C@H](C)[C@H]1O[C@@H]1O[C@H](C)C[C@H](N(C)C)[C@H]1O [Compound 40]"
  MIC: "< 4 µg/mL"
- molecule: "CCCN1CC(C[C@@H]2COC(=O)C(C)(C)C(=O)[C@H](C)[C@@H](O[C@@H]3O[C@H](C)C[C@H](N(C)C)[C@H]3O)[C@](C)(OC)C[C@@H](C)CN2C)C1 [Compound 1]"
  MIC: "< 4 µg/mL"
- molecule: "C=C[C@@H]1COC(=O)[C@H](C)C(=O)[C@H](C)[C@@H](O[C@@H]2OC(C)CC(N(C)C)C2O)[C@](C)(OC)C[C@@H](C)CN1 (stereo partly drawn) [Compound 213]"
  MIC: "> 32 µg/mL"

----------
# System: E. coli MP-4
# test: MIC determination by CLSI broth dilution, E. coli MP-4
# Format: cell-based
# condition info: Escherichia coli, MP4, CLSI broth dilution; strain MP-4

- compound: "CO[C@]1(C)C[C@@H](C)CN(C)[C@@H](CCCN2Cc3ccccc3C2)COC(=O)C(C)(C)C(=O)[C@H](C)[C@H]1O[C@@H]1O[C@H](C)C[C@H](N(C)C)[C@H]1O [Compound 112]"
  MIC: "< 4 µg/mL"
- compound: "CCN1C[C@H](C)C[C@@](C)(OC)[C@H](O[C@@H]2O[C@H](C)C[C@H](N(C)C)[C@H]2O)[C@@H](C)C(=O)C(C)(C)C(=O)OC[C@@H]1CCCN1CCN(c2ccncc2)CC1 [Compound 181]"
  MIC: "< 4 µg/mL"
- compound: "CCN1C[C@H](C)C[C@@](C)(OC)[C@H](O[C@@H]2O[C@H](C)C[C@H](N(C)C)[C@H]2O)[C@@H](C)C(=O)C(C)(C)C(=O)OC[C@@H]1CCCN1CCCCC1 [Compound 129]"
  MIC: "< 4 µg/mL"
- compound: "CO[C@]1(C)C[C@@H](C)CN[C@H](C)COC(=O)[C@H](C)C(=O)[C@H](C)[C@H]1O[C@@H]1OC(C)CC(N(C)C)C1O (some centres unmarked) [Compound 207]"
  MIC: "> 32 µg/mL"
- compound: "CCCN1CCC([C@@H](O)[C@H]2COC(=O)C(C)(C)C(=O)[C@H](C)[C@@H](O[C@@H]3O[C@H](C)C[C@H](N(C)C)[C@H]3O)[C@](C)(OC)C[C@@H](C)CN2C)CC1 [Compound 24]"
  MIC: "4 to 32 µg/mL"

----------
# Test system: K. pneumoniae MP-546
# test: MIC determination by CLSI broth dilution, K. pneumoniae MP-546
# Format: cell-based
# condition info: Klebsiella pneumoniae, MP546, CLSI broth dilution; strain MP-546
Let's look at some compounds and their measured MIC.
metric: MIC

- input smiles: "CCN(C)CC[C@@H](O)[C@@H]1COC(=O)C(C)(C)C(=O)[C@H](C)[C@@H](O[C@@H]2O[C@H](C)C[C@H](N(C)C)[C@H]2O)[C@](C)(OC)C[C@@H](C)CN1C"
  metric: "MIC"
  reported result: "< 4 µg/mL"
- input smiles: "CO[C@H](CCN1CCCC1)[C@@H]1COC(=O)C(C)(C)C(=O)[C@H](C)[C@@H](O[C@@H]2O[C@H](C)C[C@H](N(C)C)[C@H]2O)[C@](C)(OC)C[C@@H](C)CN1C"
  metric: "MIC"
  reported result: "< 4 µg/mL"
- input smiles: "COCO[C@@H](C1CCN(CC2CC2)CC1)[C@@H]1COC(=O)C(C)(C)C(=O)[C@H](C)[C@@H](O[C@@H]2O[C@H](C)C[C@H](N(C)C)[C@H]2O)[C@](C)(OC)C[C@@H](C)CN1C"
  metric: "MIC"
  reported result: "> 32 µg/mL"
- input smiles: "CCC(CC)CN1CCC(C[C@@H]2COC(=O)C(C)(C)C(=O)[C@H](C)[C@@H](O[C@@H]3O[C@H](C)C[C@H](N(C)C)[C@H]3O)[C@](C)(OC)C[C@@H](C)CN2C)CC1"
  metric: "MIC"
  reported result: "< 4 µg/mL"
- input smiles: "CCCN1CCC(C[C@@H]2[C@@H](C)OC(=O)C(C)(C)C(=O)[C@H](C)[C@@H](O[C@@H]3O[C@H](C)C[C@H](N(C)C)[C@H]3O)[C@](C)(OC)C[C@@H](C)CN2C)CC1"
  metric: "MIC"
  reported result: "< 4 µg/mL"

----------
# System: K. pneumoniae MP-546
# test: MIC determination by CLSI broth dilution, K. pneumoniae MP-546
# Type: cell-based
# condition info: Klebsiella pneumoniae, MP546, CLSI broth dilution; strain MP-546

- input smiles: "CCCN1CCC([C@@H](O)[C@H]2COC(=O)C(C)(C)C(=O)[C@H](C)[C@@H](O[C@@H]3O[C@H](C)C[C@H](N(C)C)[C@H]3O)[C@](C)(OC)C[C@@H](C)CN2C)CC1"
  MIC: "4 to 32 µg/mL"
- input smiles: "CCCN1C[C@H](C)C[C@@](C)(OC)[C@H](O[C@@H]2O[C@H](C)C[C@H](N(C)C)[C@H]2O)[C@@H](C)C(=O)C(C)(C)C(=O)OC[C@@H]1CCCN1CCCC1"
  MIC: "< 4 µg/mL"
- input smiles: "CCN1CCC(C[C@@H]2COC(=O)C(C)(C)C(=O)[C@H](C)[C@@H](O[C@@H]3O[C@H](C)C[C@H](N(C)C)[C@H]3O)[C@](C)(OC)C[C@@H](C)CN2CC)CC1"
  MIC: "< 4 µg/mL"
- input smiles: "CCCN1CC(C[C@H]2COC(=O)C(C)(C)C(=O)[C@H](C)[C@@H](O[C@@H]3O[C@H](C)C[C@H](N(C)C)[C@H]3O)[C@](C)(OC)C[C@@H](C)CN2C)C1"
  MIC: "> 32 µg/mL"
- input smiles: "CO[C@]1(C)C[C@@H](C)CN(C)[C@@H](CCCNC(C)C)COC(=O)C(C)(C)C(=O)[C@H](C)[C@H]1O[C@@H]1O[C@H](C)C[C@H](N(C)C)[C@H]1O"
  MIC: "4 to 32 µg/mL"
- input smiles: "CO[C@]1(C)C[C@@H](C)CN(C)[C@@H](CCCN2CCC(F)CC2)COC(=O)C(C)(C)C(=O)[C@H](C)[C@H]1O[C@@H]1O[C@H](C)C[C@H](N(C)C)[C@H]1O"
  MIC: "< 4 µg/mL"
- input smiles: "CO[C@]1(C)C[C@@H](C)CN(CC(C)C)[C@@H](CCCN2CCCCC2)COC(=O)C(C)(C)C(=O)[C@H](C)[C@H]1O[C@@H]1O[C@H](C)C[C@H](N(C)C)[C@H]1O"
  MIC: "4 to 32 µg/mL"
- input smiles: "CO[C@]1(C)C[C@@H](C)CN(C)[C@H](C[C@H]2C[C@H](N(C)C)C2)COC(=O)C(C)(C)C(=O)[C@H](C)[C@H]1O[C@@H]1O[C@H](C)C[C@H](N(C)C)[C@H]1O"
  MIC: "< 4 µg/mL"
- input smiles: "CO[C@]1(C)C[C@@H](C)CN(C)[C@@H](CCCN2CCC(C)(C)CC2)COC(=O)C(C)(C)C(=O)[C@H](C)[C@H]1O[C@@H]1O[C@H](C)C[C@H](N(C)C)[C@H]1O"
  MIC: "< 4 µg/mL"
- input smiles: "CCN1C[C@H](C)C[C@@](C)(OC)[C@H](O[C@@H]2O[C@H](C)C[C@H](N(C)C)[C@H]2O)[C@@H](C)C(=O)C(C)(C)C(=O)OC[C@H]1[C@H](O)CCN1CCCC1"
  MIC: "< 4 µg/mL"
